# System: Escherichia coli TOP10
# Protocol Notes: shrunken log2 fold change of peptide-encoding DNA abundance (4.5 h post-induction vs induction); higher = less antimicrobial activity (less host growth inhibition)
# Condition: time post-induction: 4.5 h; library: site-saturation at positions 5, 18, 19, 20
Measured Metric: shrunken log2 fold change
// return a plain number; no unit text

Qu. Tell me the measured shrunken log2 fold change of "RRIRRRPPRLPRPRPRPWGEPRP" , please.
Ans. 2.96

Qu. What measured shrunken log2 fold change goes with "RRIRTRPPRLPRPRPRPQAEPRP" ?
Ans. -0.00758

Qu. // shrunken log2 fold change lookup, key: "RRIRERPPRLPRPRPRPAPSPRP"
Ans. 0.116

Qu. Requested field: shrunken log2 fold change. Item: "RRIRARPPRLPRPRPRPRFAPRP"
Ans. 0.513

Qu. Which value of shrunken log2 fold change has been reported for "RRIRIRPPRLPRPRPRPLTTPRP" in the records?
Ans. -0.148

Qu. Any idea what shrunken log2 fold change was measured for "RRIRQRPPRLPRPRPRPQWIPRP" ?
Ans. -0.0848

====

Please provide measured shrunken log2 fold change for the entries that follow.
# System: Escherichia coli TOP10
# Protocol Notes: shrunken log2 fold change of peptide-encoding DNA abundance (4.5 h post-induction vs induction); higher = less antimicrobial activity (less host growth inhibition)
# Condition: time post-induction: 4.5 h; library: site-saturation at positions 5, 18, 19, 20
Please give only the number in your answer, with no unit.

Qu. // map "RRIRSRPPRLPRPRPRPYKGPRP" to recorded shrunken log2 fold change (system: Escherichia coli TOP10)
Ans. -0.186

Qu. What reported shrunken log2 fold change corresponds to "RRIRCRPPRLPRPRPRPLRAPRP" on Escherichia coli TOP10?
Ans. 1.02

Qu. # query: shrunken log2 fold change | item "RRIRHRPPRLPRPRPRPEQSPRP" | system: Escherichia coli TOP10
Ans. -0.0805

Qu. What measured shrunken log2 fold change is associated with "RRIRMRPPRLPRPRPRPTRMPRP" on Escherichia coli TOP10?
Ans. 0.685

Qu. Identify the measured shrunken log2 fold change of "RRIRWRPPRLPRPRPRPKNFPRP" for Escherichia coli TOP10.
Ans. -0.188

Qu. Item: "RRIRRRPPRLPRPRPRPLVMPRP" Test system: Escherichia coli TOP10 Read-out: shrunken log2 fold change Value: ?
Ans. 0.164

Qu. Hello, I am looking for reported shrunken log2 fold change with Escherichia coli TOP10 for "RRIRHRPPRLPRPRPRPLWHPRP" . Could you help?
Ans. -0.138

Qu. # get_value(readout= shrunken log2 fold change, system= Escherichia coli TOP10) for "RRIRQRPPRLPRPRPRPHPAPRP"
Ans. -0.114

Qu. Find shrunken log2 fold change (Escherichia coli TOP10) for the entry "RRIRQRPPRLPRPRPRPVHPPRP"
Ans. 0.211

Qu. What reported shrunken log2 fold change corresponds to "RRIRRRPPRLPRPRPRPQMHPRP" on Escherichia coli TOP10?
Ans. 0.354

Qu. // map "RRIRARPPRLPRPRPRPYLFPRP" to recorded shrunken log2 fold change (system: Escherichia coli TOP10)
Ans. -0.494

Qu. Form: Entry = "RRIRLRPPRLPRPRPRPSYAPRP" | System = Escherichia coli TOP10 | shrunken log2 fold change = ____
Ans. -0.134

Qu. Entry "RRIRHRPPRLPRPRPRPFIEPRP" , system Escherichia coli TOP10: what shrunken log2 fold change was measured?
Ans. -0.276

Qu. Query shrunken log2 fold change on Escherichia coli TOP10 for "RRIRKRPPRLPRPRPRPIVTPRP"
Ans. 0.102

Qu. Provide the documented shrunken log2 fold change with Escherichia coli TOP10 as the system for "RRIRQRPPRLPRPRPRPSTMPRP"
Ans. 0.0933

Qu. Identify the measured shrunken log2 fold change of "RRIRLRPPRLPRPRPRPIYMPRP" for Escherichia coli TOP10.
Ans. -0.199

Qu. Lookup: shrunken log2 fold change / Escherichia coli TOP10 / "RRIRARPPRLPRPRPRPTTTPRP"
Ans. 0.264

Qu. For the record "RRIRFRPPRLPRPRPRPRHQPRP" , what value of shrunken log2 fold change is listed for Escherichia coli TOP10?
Ans. 0.0747

Qu. Give recorded shrunken log2 fold change with Escherichia coli TOP10 for the following sequence: "RRIRIRPPRLPRPRPRPPFAPRP"
Ans. 0.143

Qu. Quick check: shrunken log2 fold change on Escherichia coli TOP10, item "RRIRKRPPRLPRPRPRPEYHPRP" ?
Ans. -0.0122

Qu. Enter reported shrunken log2 fold change observed with Escherichia coli TOP10 for "RRIRARPPRLPRPRPRPEIVPRP"
Ans. 0.553

Qu. // fetch Escherichia coli TOP10 shrunken log2 fold change for "RRIRPRPPRLPRPRPRPEIHPRP"
Ans. -0.536

Qu. Value wanted: shrunken log2 fold change (Escherichia coli TOP10) of entry "RRIRVRPPRLPRPRPRPASLPRP"
Ans. -0.372

Qu. Hi! What's the reported shrunken log2 fold change for "RRIRQRPPRLPRPRPRPTITPRP" on Escherichia coli TOP10?
Ans. -0.273

Qu. API: value(readout= shrunken log2 fold change, system= Escherichia coli TOP10, query= "RRIRSRPPRLPRPRPRPFPTPRP" )
Ans. -0.101

Qu. Lab note: need shrunken log2 fold change for "RRIRYRPPRLPRPRPRPLPRPRP" on Escherichia coli TOP10, anyone have it?
Ans. 0.00472

Qu. // map "RRIRNRPPRLPRPRPRPLFIPRP" to recorded shrunken log2 fold change (system: Escherichia coli TOP10)
Ans. -1.03

Qu. // fetch Escherichia coli TOP10 shrunken log2 fold change for "RRIRNRPPRLPRPRPRPFYNPRP"
Ans. -0.484

Qu. Requested read-out shrunken log2 fold change, target or system Escherichia coli TOP10, entry "RRIRARPPRLPRPRPRPAQNPRP"
Ans. 0.333

Qu. Give recorded shrunken log2 fold change with Escherichia coli TOP10 for the following sequence: "RRIRERPPRLPRPRPRPAIRPRP"
Ans. -0.0312

Qu. API: value(readout= shrunken log2 fold change, system= Escherichia coli TOP10, query= "RRIRARPPRLPRPRPRPGVSPRP" )
Ans. 0.559

Qu. Return shrunken log2 fold change measured with Escherichia coli TOP10 given this sequence: "RRIRKRPPRLPRPRPRPCQYPRP"
Ans. -0.26

Qu. Recorded shrunken log2 fold change for "RRIRWRPPRLPRPRPRPDKLPRP" with Escherichia coli TOP10, please?
Ans. 0.161

Qu. Lab note: need shrunken log2 fold change for "RRIRYRPPRLPRPRPRPCVMPRP" on Escherichia coli TOP10, anyone have it?
Ans. 0.0476

Qu. Report shrunken log2 fold change for "RRIRGRPPRLPRPRPRPHIHPRP" tested on Escherichia coli TOP10.
Ans. -0.0259

Qu. Form: Entry = "RRIRDRPPRLPRPRPRPDWPPRP" | System = Escherichia coli TOP10 | shrunken log2 fold change = ____
Ans. -0.0123

Qu. State its shrunken log2 fold change on Escherichia coli TOP10: "RRIRQRPPRLPRPRPRPVYWPRP"
Ans. 0.0694

Qu. Find the measured shrunken log2 fold change: item "RRIRNRPPRLPRPRPRPFWHPRP" , target or system Escherichia coli TOP10.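 Also: peptides expressed intracellularly from a pBAD plasmid library in pooled LB shake-flask culture, induced with 0.3% L-arabinose, DNA abundance read by NGS, three biological replicates, DESeq2 with apeglm shrinkage.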
Ans. 0.189

Qu. Which shrunken log2 fold change is reported with Escherichia coli TOP10 for this entry: "RRIRYRPPRLPRPRPRPIQCPRP" ?
Ans. -0.0422

Qu. GET /values?readout=shrunken log2 fold change&system=Escherichia coli TOP10&item= "RRIRIRPPRLPRPRPRPGYTPRP"
Ans. -0.206

Qu. Hi! What's the reported shrunken log2 fold change for "RRIRLRPPRLPRPRPRPRIGPRP" on Escherichia coli TOP10?
Ans. 0.0176

Qu. Fill in the recorded shrunken log2 fold change for this sequence, with Escherichia coli TOP10 as test system: "RRIRYRPPRLPRPRPRPVAAPRP"
Ans. 0.149

Qu. Request - read-out shrunken log2 fold change | tested on Escherichia coli TOP10 | sequence "RRIRHRPPRLPRPRPRPFMIPRP"
Ans. -0.341

Qu. Field: shrunken log2 fold change (Escherichia coli TOP10). Entry: "RRIRFRPPRLPRPRPRPAQDPRP"
Ans. 0.381

Qu. What value of shrunken log2 fold change on Escherichia coli TOP10 does "RRIRWRPPRLPRPRPRPVMWPRP" have?
Ans. 0.236

Qu. Reported shrunken log2 fold change for Escherichia coli TOP10, given "RRIRDRPPRLPRPRPRPTRDPRP" ?
Ans. 0.734

Qu. Give shrunken log2 fold change (Escherichia coli TOP10) of the following sequence: "RRIRQRPPRLPRPRPRPYWLPRP"
Ans. -0.307

Qu. Notebook: pull reported shrunken log2 fold change for Escherichia coli TOP10, entry "RRIRTRPPRLPRPRPRPKGCPRP"
Ans. 0.00952
